# System: P. falciparum W2
# test-details: Malaria SYBR Green Fluorescence Assay, W2 strain
# Format: cell-based, Plasmodium falciparum
# cond: SYBR Green Assay
recorded-endpoint: log10(W2) (log10 of the value in ng/mL)

In [3]: df
Out[3]:
                                    compound  test_result
 0  Clc1ccc(-c2nc(NCCc3ccccn3)nc(C(Cl)(Cl)Cl)n2)cc1 [Cmpd 140]         1.51
 1  CN1CCN(c2nc(-c3ccc(S(C)(=O)=O)cc3)nc(C(Cl)(Cl)Cl)n2)CC1 [Cmpd 54]         2.55
 2  CCN1CCCC(Nc2nc(-c3ccc(C(C)(C)C)cc3)nc(C(Cl)(Cl)Cl)n2)C1 (centres unmarked) [Compound 79]         1.40
 3  Clc1cc(Cl)cc(-c2nc(NCCN3CCCC3)nc(C(Cl)(Cl)Cl)n2)c1 [Cmpd 202]         1.00
 4  COc1ccccc1-c1nc(NCCc2cccnc2)nc(C(Cl)(Cl)Cl)n1 [Cmpd 182]         2.41
 5  NC1(CNc2nc(-c3ccc(Cl)c(Cl)c3)nc(C(Cl)(Cl)Cl)n2)CCCCC1 [Compound 670]         1.30
 6  CCN(CC)CCNc1nc(Cc2ccccc2OC)nc(C(Cl)(Cl)Cl)n1 [Cmpd 70]         0.78
 7  COc1ccccc1-c1nc(NCc2ccncc2)nc(C(Cl)(Cl)Cl)n1 [Cmpd 135]         2.66
 8  NC1(CNc2nc(-c3ccc(C(Cl)(Cl)Cl)cc3)nc(C(Cl)(Cl)Cl)n2)CCOCC1 [Cmpd 311]         1.67
 9  NC1(CNc2nc(-c3ccc(Cl)cc3)nc(C(Cl)(Cl)Cl)n2)CC1 [Compound 678]         1.08
10  ClC(Cl)(Cl)c1nc(NCCc2ccccn2)nc(-c2ccccc2)n1 [Cmpd 188]         1.62
11  CCN1CCC(CNc2nc(-c3ccc(Cl)c(Cl)c3)nc(C(Cl)(Cl)Cl)n2)CC1 [Cmpd 257]         1.65
12  ClC(Cl)(Cl)c1nc(NCc2cccnc2)nc(-c2ccc(-c3ccccc3)cc2)n1 [Cmpd 249]         2.74
13  CCN1CCC(CNc2nc(-c3ccc(C)cc3)nc(C(Cl)(Cl)Cl)n2)CC1 [Cmpd 265]         2.85
14  COc1ccccc1Nc1nc(NCCC2CCCN2C)nc(C(Cl)(Cl)Cl)n1 (centres unmarked) [Cmpd 63]         2.90
15  Cc1ccc(-c2ccccc2-c2nc(N3CCCNCC3)nc(C(Cl)(Cl)Cl)n2)cc1 [Cmpd 263]         2.98
16  NC1(CNc2nc(-c3ccccc3)nc(C(Cl)(Cl)Cl)n2)CCOCC1 [Compound 313]         0.30

---

Listed here: items and their measured hERG.
# tested-system: hERG potassium ion channel (Homo sapiens)
# Sequence (Q12809 whole entry): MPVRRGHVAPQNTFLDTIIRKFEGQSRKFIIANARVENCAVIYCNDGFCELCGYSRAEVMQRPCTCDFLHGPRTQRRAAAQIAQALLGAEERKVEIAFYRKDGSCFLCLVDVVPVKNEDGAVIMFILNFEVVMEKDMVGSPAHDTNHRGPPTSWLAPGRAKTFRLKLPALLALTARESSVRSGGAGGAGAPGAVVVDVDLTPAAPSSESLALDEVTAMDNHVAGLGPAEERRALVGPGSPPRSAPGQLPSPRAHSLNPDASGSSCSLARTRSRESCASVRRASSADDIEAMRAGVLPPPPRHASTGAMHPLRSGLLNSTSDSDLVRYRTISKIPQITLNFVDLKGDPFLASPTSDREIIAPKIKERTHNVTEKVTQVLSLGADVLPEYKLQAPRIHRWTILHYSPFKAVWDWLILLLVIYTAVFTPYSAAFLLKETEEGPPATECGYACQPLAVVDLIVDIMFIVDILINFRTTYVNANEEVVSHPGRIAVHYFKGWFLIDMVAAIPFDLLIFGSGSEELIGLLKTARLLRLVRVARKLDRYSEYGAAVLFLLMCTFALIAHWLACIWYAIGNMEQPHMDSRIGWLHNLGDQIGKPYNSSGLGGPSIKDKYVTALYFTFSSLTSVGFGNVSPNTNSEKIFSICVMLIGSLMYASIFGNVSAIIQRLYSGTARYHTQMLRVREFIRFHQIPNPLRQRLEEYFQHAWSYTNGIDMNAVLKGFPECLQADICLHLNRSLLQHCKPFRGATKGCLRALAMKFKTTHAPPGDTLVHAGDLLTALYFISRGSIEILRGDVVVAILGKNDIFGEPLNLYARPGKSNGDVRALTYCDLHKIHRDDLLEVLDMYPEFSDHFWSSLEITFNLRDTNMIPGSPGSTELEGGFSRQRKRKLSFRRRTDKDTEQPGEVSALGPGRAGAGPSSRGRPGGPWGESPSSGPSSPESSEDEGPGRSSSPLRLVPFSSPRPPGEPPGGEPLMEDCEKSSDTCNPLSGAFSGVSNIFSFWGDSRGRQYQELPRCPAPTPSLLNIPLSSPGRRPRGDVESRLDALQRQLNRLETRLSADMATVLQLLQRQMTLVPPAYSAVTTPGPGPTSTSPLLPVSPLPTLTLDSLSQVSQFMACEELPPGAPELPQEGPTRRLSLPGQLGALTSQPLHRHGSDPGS
# test-details: hERG patch clamp assay (% inhibition at 10 μM)
# cond: % inhibition at 10 μM, patch clamp
recorded-endpoint: hERG (%)

                                   compound                             tested_system  output_unit  test_result
0  Clc1ccc(-c2nc(N3CCNCC3)nc(C(Cl)(Cl)Cl)n2)cc1Cl  hERG potassium ion channel (Homo sapiens)            %           10
1  CCN(CC)CCNc1nc(-c2ccc3ccccc3c2)nc(C(Cl)(Cl)Cl)n1  hERG potassium ion channel (Homo sapiens)            %           66
2  CN1CCN(c2nc(-c3ccc(Cl)c(Cl)c3)nc(C(Cl)(Cl)Cl)n2)CC1  hERG potassium ion channel (Homo sapiens)            %           33
3  COc1ccc(Cc2nc(NCCN3CCCC3C)nc(C(Cl)(Cl)Cl)n2)cc1 (stereo not drawn)  hERG potassium ion channel (Homo sapiens)            %           50
4  CN1CCCN(c2nc(-c3ccc(Cl)c(Cl)c3)nc(C(Cl)(Cl)Cl)n2)CC1  hERG potassium ion channel (Homo sapiens)            %           64
5  Clc1ccc(-c2nc(NCCc3ccccn3)nc(C(Cl)(Cl)Cl)n2)cc1  hERG potassium ion channel (Homo sapiens)            %           11

---

# Test system: P. falciparum W2
# test-details: Malaria SYBR Green Fluorescence Assay, W2 strain
# Format: cell-based, Plasmodium falciparum
# cond: SYBR Green Assay
recorded-endpoint: W2 (ng/mL)

>>> print(df.to_string())
                                    compound     tested_system  output_unit  test_result
 0  Cc1ccc(-c2nc(N3CCCN(C)CC3)nc(C(Cl)(Cl)Cl)n2)cc1  P. falciparum W2        ng/mL          107
 1  COc1ccc(-c2nc(NCC3(N)CCOCC3)nc(C(Cl)(Cl)Cl)n2)cc1OC  P. falciparum W2        ng/mL           10
 2  CS(=O)(=O)c1ccc(-c2nc(N3CCCNCC3)nc(C(Cl)(Cl)Cl)n2)cc1  P. falciparum W2        ng/mL           51
 3  CCN(CC)CCNc1nc(-c2ccccc2OC)nc(C(Cl)(Cl)Cl)n1  P. falciparum W2        ng/mL           95
 4  ClC(Cl)(Cl)c1ccc(-c2nc(NCCc3ccccn3)nc(C(Cl)(Cl)Cl)n2)cc1  P. falciparum W2        ng/mL           20
 5  FC(F)(F)c1cccc(-c2nc(NCCc3ccccn3)nc(C(Cl)(Cl)Cl)n2)c1  P. falciparum W2        ng/mL          115
 6  CN1CCN(c2nc(-c3ccc(Cl)cc3)nc(C(Cl)(Cl)Cl)n2)CC1  P. falciparum W2        ng/mL          173
 7  CCN(CC)CCNc1nc(-c2ccccc2C)nc(C(Cl)(Cl)Cl)n1  P. falciparum W2        ng/mL           31
 8  CCN1CCCC(Nc2nc(-c3ccc(SC)cc3)nc(C(Cl)(Cl)Cl)n2)C1 (stereo not drawn)  P. falciparum W2        ng/mL           69
 9  CS(=O)(=O)c1ccc(-c2nc(NCCc3ccncc3)nc(C(Cl)(Cl)Cl)n2)cc1  P. falciparum W2        ng/mL          162
10  ClC(Cl)(Cl)c1nc(-c2ccc3ccccc3c2)nc(N2CCCNCC2)n1  P. falciparum W2        ng/mL           10
11  COc1ccc(-c2nc(NCCc3ccccn3)nc(C(Cl)(Cl)Cl)n2)cc1  P. falciparum W2        ng/mL           63
12  COc1cccc(Cc2nc(NCCN3CCCC3)nc(C(Cl)(Cl)Cl)n2)c1  P. falciparum W2        ng/mL          805
13  COc1cccc(-c2nc(NC3CCN(C)CC3)nc(C(Cl)(Cl)Cl)n2)c1  P. falciparum W2        ng/mL           22
14  CCN1CCCC(Nc2nc(Cc3ccccc3OC)nc(C(Cl)(Cl)Cl)n2)C1 (stereo not drawn)  P. falciparum W2        ng/mL          173
15  COc1ccc(-c2nc(NCc3ccncc3)nc(C(Cl)(Cl)Cl)n2)cc1  P. falciparum W2        ng/mL            5
16  CS(=O)(=O)c1ccc(-c2nc(N3CC4CC3CN4)nc(C(Cl)(Cl)Cl)n2)cc1 (stereo not drawn)  P. falciparum W2        ng/mL           71
17  CC(C)(C)c1ccc(-c2nc(N3CCCNCC3)nc(C(Cl)(Cl)Cl)n2)cc1  P. falciparum W2        ng/mL          242
18  COc1cccc(-c2nc(NCCN3CCCC3)nc(C(Cl)(Cl)Cl)n2)c1  P. falciparum W2        ng/mL           13
19  CN1CCCC1CCNc1nc(Nc2ccc(OC(F)(F)F)cc2)nc(C(Cl)(Cl)Cl)n1 (stereo not drawn)  P. falciparum W2        ng/mL           10
20  ClC(Cl)(Cl)c1nc(NCc2ccccn2)nc(-c2ccc(-c3ccccc3)cc2)n1  P. falciparum W2        ng/mL          721
21  CN(CC(=O)OC(C)(C)C)c1nc(-c2ccc(Cl)cc2)nc(C(Cl)(Cl)Cl)n1  P. falciparum W2        ng/mL          501
22  CC1(C)CC(Nc2nc(-c3ccccc3)nc(C(Cl)(Cl)Cl)n2)CC(C)(C)N1  P. falciparum W2        ng/mL            2
23  CC(C)CN1CCC(Nc2nc(-c3ccc(Cl)cc3)nc(C(Cl)(Cl)Cl)n2)CC1  P. falciparum W2        ng/mL           29
